All figures here come from PubChem BioAssay AID1963835.

- System: 699152-130-R-J1-PDC complex spheroid viability
- Test protocol: Anticancer human tumor 699152-130-R-J1-PDC patient-derived pancreatic carcinoma cell line growth inhibition [POLQ]
- Condition set: second compound 0.1 µM; first compound 0.01 µM; stronger effect = lower value
- Experimental: Multicellular complex tumor spheroid response to Polymerase (POL) inhibitors (novobiocin, ART-558, RP6685) in combination with a variety of drugs and investigational agents in selected tumor cell lines The POL inhibitors (novobiocin, ART-558, and RP6685) were evaluated both individually and in combination with standard of care and investigational anticancer small molecules within a complex spheroid model of solid tumors. . […]
Please respond with reported viability, T/C for every item in the list.
Return type: number; implicit unit %.

Query block: Bench note: what viability, T/C did CCc1c2c(nc3ccc(O)cc13)-c1cc3c(c(=O)n1C2)COC(=O)[C@]3(O)CC + Nc1ccc(C#CCN(C(=O)Cc2ncc(C(F)(F)F)cc2C(F)(F)F)c2ccc(F)cc2)nn1 show?
Result block: 57.4

Query block: Bench note: what viability, T/C did CC[C@@]1(O)C(=O)OCc2c1cc1n(c2=O)Cc2cc3c(CN(C)C)c(O)ccc3nc2-1 + Cc1cccc(N(C)C(=O)C2C(O)CCN2c2nc(C)cc(C(F)(F)F)c2C#N)c1 show?
Result block: 112

Query block: Bench note: what viability, T/C did CC[C@@]1(O)C(=O)OCc2c1cc1n(c2=O)Cc2cc3c(CN(C)C)c(O)ccc3nc2-1 + COC1C(OC(N)=O)C(O)C(Oc2ccc3c(O)c(NC(=O)c4ccc(O)c(CC=C(C)C)c4)c(=O)oc3c2C)OC1(C)C show?
Result block: 93.2

Query block: Bench note: what viability, T/C did C=CCn1c(=O)c2cnc(Nc3ccc(N4CCN(C)CC4)cc3)nc2n1-c1cccc(C(C)(C)O)n1 + Nc1ccc(C#CCN(C(=O)Cc2ncc(C(F)(F)F)cc2C(F)(F)F)c2ccc(F)cc2)nn1 show?
Result block: 98

Query block: Bench note: what viability, T/C did Cn1ncnc1[C@H]1c2n[nH]c(=O)c3cc(F)cc(c23)N[C@@H]1c1ccc(F)cc1 + COC1C(OC(N)=O)C(O)C(Oc2ccc3c(O)c(NC(=O)c4ccc(O)c(CC=C(C)C)c4)c(=O)oc3c2C)OC1(C)C show?
Result block: 111

Query block: Bench note: what viability, T/C did COc1cccc(OCCCN)c1-c1cc(Nc2cnc(C#N)cn2)n[nH]1 + Cc1cccc(N(C)C(=O)C2C(O)CCN2c2nc(C)cc(C(F)(F)F)c2C#N)c1 show?
Result block: 85.7

Query block: Bench note: what viability, T/C did C=CCn1c(=O)c2cnc(Nc3ccc(N4CCN(C)CC4)cc3)nc2n1-c1cccc(C(C)(C)O)n1 + COC1C(OC(N)=O)C(O)C(Oc2ccc3c(O)c(NC(=O)c4ccc(O)c(CC=C(C)C)c4)c(=O)oc3c2C)OC1(C)C show?
Result block: 102

Query block: Bench note: what viability, T/C did C=CCn1c(=O)c2cnc(Nc3ccc(N4CCN(C)CC4)cc3)nc2n1-c1cccc(C(C)(C)O)n1 + Cc1cccc(N(C)C(=O)C2C(O)CCN2c2nc(C)cc(C(F)(F)F)c2C#N)c1 show?
Result block: 90.2

Query block: Bench note: what viability, T/C did CCc1c2c(nc3ccc(O)cc13)-c1cc3c(c(=O)n1C2)COC(=O)[C@]3(O)CC + Cc1cccc(N(C)C(=O)C2C(O)CCN2c2nc(C)cc(C(F)(F)F)c2C#N)c1 show?
Result block: 57.1

Query block: Bench note: what viability, T/C did CC[C@@]1(O)C(=O)OCc2c1cc1n(c2=O)Cc2cc3c(CN(C)C)c(O)ccc3nc2-1 + Nc1ccc(C#CCN(C(=O)Cc2ncc(C(F)(F)F)cc2C(F)(F)F)c2ccc(F)cc2)nn1 show?
Result block: 92.1

----------
- Test system: 699152-130-R-J1-PDC complex spheroid viability
- Test protocol: Anticancer human tumor 699152-130-R-J1-PDC cell line growth inhibition [POLQ];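 also: spheroids exposed to agents for 7 days before viability reading; percent of DMSO vehicle control viability so 100% = vehicle and 0% = no viable signal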
- Condition set: second compound 3.16 µM; first compound 0.1 µM; stronger effect = lower value
Measured parameter: viability, T/C (%)
Return type: number; implicit unit %.

Query block: Bench note: what viability, T/C did CC(C)n1c(=O)n(C)c2cnc3cc(F)c(-c4ccc(OCCCN5CCCCC5)nc4)cc3c21 + COC1C(OC(N)=O)C(O)C(Oc2ccc3c(O)c(NC(=O)c4ccc(O)c(CC=C(C)C)c4)c(=O)oc3c2C)OC1(C)C show?
Result block: 41.9

Query block: Bench note: what viability, T/C did CCCS(=O)(=O)Nc1ccc(F)c(C(=O)c2c[nH]c3ncc(-c4ccc(Cl)cc4)cc23)c1F + Nc1ccc(C#CCN(C(=O)Cc2ncc(C(F)(F)F)cc2C(F)(F)F)c2ccc(F)cc2)nn1 show?
Result block: 123

Query block: Bench note: what viability, T/C did COc1cc(C2c3cc4c(cc3C(OC3OC5COC(C)OC5C(O)C3O)C3COC(=O)C23)OCO4)cc(OC)c1O (stereo not given) + COC1C(OC(N)=O)C(O)C(Oc2ccc3c(O)c(NC(=O)c4ccc(O)c(CC=C(C)C)c4)c(=O)oc3c2C)OC1(C)C show?
Result block: 86.2

Query block: Bench note: what viability, T/C did COc1ccc([C@@H](O)c2cc(-c3ncnc4cc(N5CCOCC5)ccc34)c(F)cc2Cl)nn1 + COC1C(OC(N)=O)C(O)C(Oc2ccc3c(O)c(NC(=O)c4ccc(O)c(CC=C(C)C)c4)c(=O)oc3c2C)OC1(C)C show?
Result block: 108

Query block: Bench note: what viability, T/C did COc1cccc2c1C(=O)c1c(O)c3c(c(O)c1C2=O)CC(O)(C(=O)CO)CC3OC1CC(N)C(O)C(C)O1 (stereo not given) + Nc1ccc(C#CCN(C(=O)Cc2ncc(C(F)(F)F)cc2C(F)(F)F)c2ccc(F)cc2)nn1 show?
Result block: 61.8

----------
- Tested on: 699152-130-R-J1-PDC complex spheroid viability
- Test protocol: Anticancer human tumor 699152-130-R-J1-PDC cell line growth inhibition [POLQ];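 also: spheroids exposed to agents for 7 days before viability reading; percent of DMSO vehicle control viability so 100% = vehicle and 0% = no viable signal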
- Condition set: second compound 3.16 µM; first compound 0.1 µM; stronger effect = lower value
Measured parameter: viability, T/C (%)
Return type: number; implicit unit %.

Query block: Under 699152-130-R-J1-PDC complex spheroid viability: viability, T/C value of C=CC(=O)N1CCN(c2nc(=O)n(-c3c(C)ccnc3C(C)C)c3nc(-c4c(O)cccc4F)c(F)cc23)C(C)C1 (stereo unspecified) + Nc1ccc(C#CCN(C(=O)Cc2ncc(C(F)(F)F)cc2C(F)(F)F)c2ccc(F)cc2)nn1 ?
Result block: 125

Query block: Under 699152-130-R-J1-PDC complex spheroid viability: viability, T/C value of CCc1c2c(nc3ccc(O)cc13)-c1cc3c(c(=O)n1C2)COC(=O)[C@]3(O)CC + COC1C(OC(N)=O)C(O)C(Oc2ccc3c(O)c(NC(=O)c4ccc(O)c(CC=C(C)C)c4)c(=O)oc3c2C)OC1(C)C ?
Result block: 40.4

Query block: Under 699152-130-R-J1-PDC complex spheroid viability: viability, T/C value of CNCc1ccc(-c2[nH]c3cc(F)cc4c3c2CCNC4=O)cc1 + Nc1ccc(C#CCN(C(=O)Cc2ncc(C(F)(F)F)cc2C(F)(F)F)c2ccc(F)cc2)nn1 ?
Result block: 93.6

Query block: Under 699152-130-R-J1-PDC complex spheroid viability: viability, T/C value of CCc1c2c(nc3ccc(O)cc13)-c1cc3c(c(=O)n1C2)COC(=O)[C@]3(O)CC + Nc1ccc(C#CCN(C(=O)Cc2ncc(C(F)(F)F)cc2C(F)(F)F)c2ccc(F)cc2)nn1 ?
Result block: 48.5

Query block: Under 699152-130-R-J1-PDC complex spheroid viability: viability, T/C value of Nc1ccn(C2OC(CO)C(O)C2(F)F)c(=O)n1 (stereo unspecified) + Cc1cccc(N(C)C(=O)C2C(O)CCN2c2nc(C)cc(C(F)(F)F)c2C#N)c1 ?
Result block: 63.3

Query block: Under 699152-130-R-J1-PDC complex spheroid viability: viability, T/C value of Cn1ncnc1[C@H]1c2n[nH]c(=O)c3cc(F)cc(c23)N[C@@H]1c1ccc(F)cc1 + Nc1ccc(C#CCN(C(=O)Cc2ncc(C(F)(F)F)cc2C(F)(F)F)c2ccc(F)cc2)nn1 ?
Result block: 89.5

Query block: Under 699152-130-R-J1-PDC complex spheroid viability: viability, T/C value of CCc1cc2c(N3CCc4c(cc(Cn5ccnc5)cc4-c4cn(C)nc4C(F)(F)F)C3=O)cc(C)nc2c(OC)n1 + Nc1ccc(C#CCN(C(=O)Cc2ncc(C(F)(F)F)cc2C(F)(F)F)c2ccc(F)cc2)nn1 ?
Result block: 95.7

Query block: Under 699152-130-R-J1-PDC complex spheroid viability: viability, T/C value of CCc1cc2c(N3CCc4c(cc(Cn5ccnc5)cc4-c4cn(C)nc4C(F)(F)F)C3=O)ccnc2c(OC)n1 + Cc1cccc(N(C)C(=O)C2C(O)CCN2c2nc(C)cc(C(F)(F)F)c2C#N)c1 ?
Result block: 94.5

Query block: Under 699152-130-R-J1-PDC complex spheroid viability: viability, T/C value of COc1cccc(OCCCN)c1-c1cc(Nc2cnc(C#N)cn2)n[nH]1 + Cc1cccc(N(C)C(=O)C2C(O)CCN2c2nc(C)cc(C(F)(F)F)c2C#N)c1 ?
Result block: 56.3

Query block: Under 699152-130-R-J1-PDC complex spheroid viability: viability, T/C value of COc1cccc(OCCCN)c1-c1cc(Nc2cnc(C#N)cn2)n[nH]1 + Nc1ccc(C#CCN(C(=O)Cc2ncc(C(F)(F)F)cc2C(F)(F)F)c2ccc(F)cc2)nn1 ?
Result block: 60.6

Query block: Under 699152-130-R-J1-PDC complex spheroid viability: viability, T/C value of COc1cccc2c1C(=O)c1c(O)c3c(c(O)c1C2=O)CC(O)(C(=O)CO)CC3OC1CC(N)C(O)C(C)O1 (stereo unspecified) + Cc1cccc(N(C)C(=O)C2C(O)CCN2c2nc(C)cc(C(F)(F)F)c2C#N)c1 ?
Result block: 60.7
